Ref: patent US10329302B2

Target: human IRAK4 FL (Full Length) (Homo sapiens (Human))
Sequence (Q9NWZ3 whole entry): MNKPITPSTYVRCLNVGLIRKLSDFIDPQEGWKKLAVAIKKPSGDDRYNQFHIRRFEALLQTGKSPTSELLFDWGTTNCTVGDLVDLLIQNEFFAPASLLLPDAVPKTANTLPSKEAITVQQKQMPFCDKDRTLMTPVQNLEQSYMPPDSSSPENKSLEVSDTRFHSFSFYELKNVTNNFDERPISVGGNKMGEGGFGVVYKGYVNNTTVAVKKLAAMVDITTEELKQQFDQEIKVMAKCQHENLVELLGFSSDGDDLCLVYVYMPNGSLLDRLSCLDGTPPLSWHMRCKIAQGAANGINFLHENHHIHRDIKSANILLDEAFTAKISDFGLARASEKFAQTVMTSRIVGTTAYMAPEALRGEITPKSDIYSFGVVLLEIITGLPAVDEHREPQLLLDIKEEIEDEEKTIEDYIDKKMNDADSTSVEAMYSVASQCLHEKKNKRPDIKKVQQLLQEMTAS
Experiment: IRAK4 Enzymatic DELFIA Assay, Protocol A
Type: biochemical
TEST_READOUT: IC50 (nM)
Write it as a number; the unit nM goes unstated.

response.value for "COc1cc2c(OC[C@@H]3C[C@H](OC)C(=O)N3)cccc2cc1C(N)=O" (field: IC50) = 67

response.value for CC(C)Oc1cc2c(OCC3(CO)CCC(=O)N3)nccc2cc1C(N)=O (stereo not shown) (field: IC50) = 59

response.value for "COc1cc2c(OC[C@@H]3C[C@@](F)(CF)C(=O)N3)nccc2cc1C(N)=O" (field: IC50) = 1.7

response.value for "COc1cc2c(OC[C@H]3NC(=O)[C@]4(F)C[C@H]34)nccc2cc1C(N)=O" (field: IC50) = 0.6

response.value for "CC(C)Oc1cc2c(OC[C@@H]3CCC(=O)N3)ncc(-c3cccc(=O)[nH]3)c2cc1C(N)=O" (field: IC50) = 59

response.value for "COc1cc2c(OC[C@H]3NC(=O)C[C@H]3CF)nccc2cc1C(N)=O" (field: IC50) = 6.1

response.value for "CC(C)Oc1cc2c(OC[C@@H]3CCC(=O)N3)ncc(CN)c2cc1C(N)=O" (field: IC50) = 3400

====

Assign log10 of IC50 to each entry below.
Target: UniProt:Q9NWZ3
Assay: IRAK4 Enzymatic DELFIA Assay, Protocol A
Format: biochemical
Details: human IRAK4 FL, 0.6 mM ATP (KM); read-out: IRAK4 DELFIA Protocol A IC50
Recall that a logarithmic scale is used here: each number is log10 of IC50 in nM.

response.value for COc1cc2c(OC[C@H]3NC(=O)[C@@H](F)[C@H]3C)cccc2cc1C(N)=O [Example 218] (field: log10 of IC50) = -0.52

response.value for CC(C)Oc1cc2c(OC[C@@H]3C[C@@](C)(F)C(=O)N3)nccc2cc1C(N)=O [Example 133] (field: log10 of IC50) = 2.24

response.value for COc1cc2c(OC[C@@H]3COC(=O)N3)cccc2cc1C(N)=O [Example 233] (field: log10 of IC50) = -0.52

response.value for COc1cc2c(OC[C@H]3NC(=O)[C@H](F)[C@H]3C3CC3)nccc2cc1C(N)=O [Example 369] (field: log10 of IC50) = 0.57

response.value for CC(C)Oc1cc2c(OC[C@H]3NC(=O)C[C@H]3C)nccc2cc1C(N)=O [Example 219] (field: log10 of IC50) = 0.23

response.value for COc1cc2c(OC[C@@H]3CC4(CC4)C(=O)N3)nccc2cc1C(N)=O [Example 245] (field: log10 of IC50) = 1.46

response.value for COc1cc2c(OC[C@@H]3C[C@H](F)C(=O)N3)nccc2cc1C(N)=O [Example 252] (field: log10 of IC50) = -0.05

====

Target: human IRAK4 FL (Full Length) (Homo sapiens (Human))
Experiment: IRAK4 Enzymatic DELFIA Assay, Protocol A
Type: biochemical
Conditions: human IRAK4 FL, 0.6 mM ATP (KM); read-out: IRAK4 DELFIA Protocol A IC50
TEST_READOUT: IC50 (nM)
Write it as a number; the unit nM goes unstated.

response.value for "CC(C)Oc1cc2c(OC[C@@H]3CCC(=O)N3)ncc(-c3cn(C)cn3)c2cc1C(N)=O" (field: IC50) = 7

response.value for "CC(C)Oc1cc2c(OC[C@]3(CO)CCC(=O)N3)nccc2cc1C(N)=O" (field: IC50) = 17

response.value for "CC[C@@H]1CC(=O)N[C@@H]1COc1nccc2cc(C(N)=O)c(OC)c(F)c12" (field: IC50) = 11

response.value for "CC(C)Oc1cc2c(OC[C@@H]3C[C@H](CC(F)(F)F)C(=O)N3)nccc2cc1C(N)=O" (field: IC50) = 6.7
